Measured values drawn from the RNAGym collection of RNA variant scans (doi:10.7554/elife.90254) for this set.

B1: LINE1-mini (parent)
chain: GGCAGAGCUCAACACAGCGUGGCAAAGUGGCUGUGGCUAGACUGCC

- Variants of: B1
- experiment_description: self-cleavage, relative activity (ratio to wild type); higher = more cleavage; in vitro, sequencing; the parent is a self-cleaving ribozyme
// label = Met if self-cleavage is not less than 0.07, otherwise Not met

Known results for variants:
sequence_data	assigned_class
GGCAGAGCUCAACACAGCGUGGCAAAGUGCCUGUGGCUAGACUCCC [G30C G44C]	Met
GGCACAGCUCAACAAAGCGUGGCAAAGUGGCUGUGGCUAGACUGCC [G5C C15A]	Not met

Task item: Identify whether the reported self-cleavage of the following variant is 0.07 or greater: GGCAGAGUUCAACACAGCGUAGCAAAGUGGCUGUGGCUAGACUGCC [C8U G21A]
Reply: Met

Task item: Param item: GGCAGAGCUCAACACAGCGUGGCUAAGUGGCCGUGGCUAGACUGCC [A24U U32C]
Reply: Met

Task item: Can you check GGCAGAGCUAAACACAGCGUGGCAAAGUGGCUGUGGCUAGACUUCC [C10A G44U] next?
Reply: Not met

Task item: Consider next the variant GGCCGAGCUCAACACAGCGUGGCAAAAUGGCUGUGGCUAGACUGCC [A4C G27A] in the same way.
Reply: Met

Task item: And what about the variant GGCAGAGCUCAACAGAGCGAGGCAAAGUGGCUGUGGCUAGACUGCC [C15G U20A] ?
Reply: Met

Task item: Try the variant GGCAGAGUUCAACACCGCGUGGCAAAGUGGCUGUGGCUAGACUGCC [C8U A16C]
Reply: Met

Task item: Follow-up item: GGCAGAGAUCAACACAGCGUGGCAAUGUGGCUGUGGCUAGACUGCC [C8A A26U]
Reply: Met

Task item: Record: GGCAGAGCUCAACACAGCGUAGCAAAGUGGCCGUGGCUAGACUGCC [G21A U32C]
Reply: Met

Task item: Entry CGCAGAGCUCAACACAGCGUGGCAAAGUGGCUGUCGCUAGACUGCC [G1C G35C] please
Reply: Not met

Task item: And then GGCAGAGAUCAACACAGCGUGGCAAAGUGGCUGUGGCUAGACAGCC [C8A U43A] , what is it?
Reply: Met

Task item: Follow-up item: GGCGGAGCUCCACACAGCGUGGCAAAGUGGCUGUGGCUAGACUGCC [A4G A11C]
Reply: Not met

Task item: Record: GGCAGAGCUCAACACGGCGUGGCAAAGUGACUGUGGCUAGACUGCC [A16G G30A]
Reply: Met

Task item: Repeat for the following variant: GGCACAGCUCAACACAGCGUGGCAAAGUGGGUGUGGCUAGACUGCC [G5C C31G]
Reply: Not met

Task item: And the next one, GGCAGAGCUCAACACAGCGUGGCAAAGUGCCUGCGGCUAGACUGCC [G30C U34C] ?
Reply: Met

Task item: And what about the variant UGCAGAGCUCAACACAGCGUGGCAAAGUGGCUGUGGCUCGACUGCC [G1U A39C] ?
Reply: Met

Task item: Same read-out for GGCAGAGUUCAACGCAGCGUGGCAAAGUGGCUGUGGCUAGACUGCC [C8U A14G] ?
Reply: Met

Task item: Try the variant GGCAGAGCUCAACACAACGUGGCAAAGUGGCUGUGGCUAGACUCCC [G17A G44C]
Reply: Not met

Task item: Note, next up: GGCAGAGCUAAACACAGCGUGGCAAAGUGGCUGUGGAUAGACUGCC [C10A C37A]
Reply: Not met
